TGT: Transcription factor E2F1 (Homo sapiens)
EXPERIMENT: ATG_E2F_CIS: Attagene CIS-FACTORIAL HepG2 Assay for human E2F Transcription Factor 1 (AID 2282935)
TEST_CONTEXT: HepG2 Attagene cis-reporter, E2F reporter RNA transcripts; actives raise or lower the signal
The source made the active and inactive calls. Rule for the calls: active = hit-call score of the fitted dose curve at least 0.9, where 1 is the maximum; inactive = score below 0.9.
OBSERVABLE: outcome

[[record]]
molecule = "CCNc1nc(NC(C)(C)C)nc(OC)n1"
tgt = "Transcription factor E2F1 (Homo sapiens)"
observable = "outcome"
value_observed = "inactive"

[[record]]
molecule = "CCCCCCOc1ccc(N)cc1"
tgt = "Transcription factor E2F1 (Homo sapiens)"
observable = "outcome"
value_observed = "inactive"

[[record]]
molecule = "C=C(C)C(=O)OCCCCCCCCCCCC"
tgt = "Transcription factor E2F1 (Homo sapiens)"
observable = "outcome"
value_observed = "inactive"

[[record]]
molecule = "CCOC(=O)/C=C\\C(=O)OCC"
tgt = "Transcription factor E2F1 (Homo sapiens)"
observable = "outcome"
value_observed = "inactive"

[[record]]
molecule = "O=C(O)CC(C(=O)O)S(=O)(=O)O (configuration not stated)"
tgt = "Transcription factor E2F1 (Homo sapiens)"
observable = "outcome"
value_observed = "inactive"

[[record]]
molecule = "Clc1cc(Cl)c(Cl)c(Cl)c1Cl"
tgt = "Transcription factor E2F1 (Homo sapiens)"
observable = "outcome"
value_observed = "inactive"


Lookup: Please provide the recorded outcome for COc1nccnc1CC(C)C , tested on Transcription factor E2F1 (Homo sapiens).
Found: inactive

Lookup: Fill in the recorded outcome for this molecule, with Transcription factor E2F1 (Homo sapiens) as test system: [Cl][Eu]([Cl])[Cl]
Found: inactive

Lookup: Quick check: outcome on Transcription factor E2F1 (Homo sapiens), item CC(CCC(=O)O)(c1ccc(O)cc1)c1ccc(O)cc1 ?
Found: inactive

Lookup: Request: outcome, test system Transcription factor E2F1 (Homo sapiens), entry O=C1CCCCCCCCCCC1
Found: inactive

Lookup: Recorded outcome for CC(C)c1ccc(O)c(C(C)C)c1 with Transcription factor E2F1 (Homo sapiens), please?
Found: inactive

Lookup: Find outcome (Transcription factor E2F1 (Homo sapiens)) for the entry Nc1cccc(N)n1
Found: inactive

src = PubChem BioAssay (EPA / NIEHS)
